test system: NCI-H522; test: NCI tumour cell line growth inhibition, 48 h
Active and inactive are the calls of the source. Rule as the data show it: active = GI50 up to about 1.1 µM and inactive = higher.
Outcome field: choose from 1.0 = active, 0.0 = inactive

So what was the verdict on CO/C=C(\Br)c1ccc2c(c1)OCO2 in this test?
0.0

So what was the verdict on CCOC(=O)NN(C(=O)OCC)c1ccc(/N=N/c2ccc(OC)cc2)n1C in this test?
0.0

So what was the verdict on CC(C)CCC[C@@H](C)C1CCC2[C@@H]3CC=C4C[C@@H](OC(=O)CCC(=O)NCC[N+](C)(C)CCCS(=O)(=O)[O-])CC[C@]4(C)C3CC[C@@]21C (stereo partly specified) in this test?
0.0

So what was the verdict on COC(=O)/N=C(\NC(=O)OC)Nc1ccc(Oc2ccccc2)cc1NC=O in this test?
1.0

So what was the verdict on CCOc1ccc(NC(=O)CC2C(=O)Nc3ccccc3S2(=O)=O)cc1 (stereo unspecified) in this test?
0.0

So what was the verdict on COc1cc(N(CCC#N)CCC#N)ccc1/C=C1\SC(=S)NC1=O in this test?
0.0

So what was the verdict on Cc1c(S(=O)(=O)O)ccc(/N=N/c2c(O)c(C(=O)O)cc3ccccc23)c1Cl in this test?
0.0

So what was the verdict on O=C(O)c1cc(C(=O)O)nc(C(=O)O)c1 in this test?
0.0

So what was the verdict on COc1ccc(-c2oc3cc(OC)c(OC)c(O)c3c(=O)c2OC)cc1 in this test?
0.0

So what was the verdict on CC(=O)Nc1ccc(N2C(=O)/C(=C\c3cccc(Oc4ccccc4)c3)SC2c2ccccc2)cc1 (stereo unspecified) in this test?
0.0

So what was the verdict on Sc1ncnc2c1ncn2C1CCCO1 (stereo unspecified) in this test?
0.0
